molecular target: PRMT5/MEP50 (Homo sapiens (Human), UniProt O14744); experiment: PRMT5 Biochemical Assay (PRMT5/MEP50 enzyme assay on peptide substrate, 3H-SAM Flashplate); settings: PRMT5/MEP50 4 nM, 3H-SAM 75 nM, peptide 40 nM
Sequence (O14744 other isoform, or with tags, fused parts or gaps): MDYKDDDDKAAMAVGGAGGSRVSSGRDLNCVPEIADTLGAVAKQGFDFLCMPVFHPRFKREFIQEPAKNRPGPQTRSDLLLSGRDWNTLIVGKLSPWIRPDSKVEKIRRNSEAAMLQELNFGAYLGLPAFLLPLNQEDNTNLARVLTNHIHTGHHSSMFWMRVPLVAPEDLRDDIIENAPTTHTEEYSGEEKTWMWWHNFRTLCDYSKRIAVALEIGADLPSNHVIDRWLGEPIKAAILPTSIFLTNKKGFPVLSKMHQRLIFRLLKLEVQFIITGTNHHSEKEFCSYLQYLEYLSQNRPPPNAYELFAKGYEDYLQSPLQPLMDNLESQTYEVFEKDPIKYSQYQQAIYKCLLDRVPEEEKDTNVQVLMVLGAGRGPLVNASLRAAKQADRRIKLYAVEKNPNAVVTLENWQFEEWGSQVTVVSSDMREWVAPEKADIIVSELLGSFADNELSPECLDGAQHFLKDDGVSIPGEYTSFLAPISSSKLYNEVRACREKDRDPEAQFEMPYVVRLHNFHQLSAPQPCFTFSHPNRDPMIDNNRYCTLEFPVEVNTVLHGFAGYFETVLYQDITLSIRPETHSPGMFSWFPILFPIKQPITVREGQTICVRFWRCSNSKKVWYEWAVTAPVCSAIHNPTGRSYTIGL
Sequence (Q9BQA1 other isoform, or with tags, fused parts or gaps partner): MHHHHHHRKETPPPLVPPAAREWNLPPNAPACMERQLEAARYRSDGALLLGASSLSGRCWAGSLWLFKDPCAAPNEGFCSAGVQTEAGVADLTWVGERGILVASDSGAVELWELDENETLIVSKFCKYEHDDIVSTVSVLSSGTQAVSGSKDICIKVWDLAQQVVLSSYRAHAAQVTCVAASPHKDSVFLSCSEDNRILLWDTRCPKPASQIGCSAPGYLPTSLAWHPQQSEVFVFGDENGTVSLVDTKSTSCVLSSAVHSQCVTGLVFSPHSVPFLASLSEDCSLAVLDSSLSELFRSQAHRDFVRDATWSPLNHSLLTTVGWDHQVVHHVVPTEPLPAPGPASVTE
Metric Name: IC50

[[record]]
molecule = "O=C(NCCCN1Cc2ccccc2C1)c1cc(NC2COC2)ncn1"
tested_system = "PRMT5/MEP50 (Homo sapiens (Human), UniProt O14744)"
metric_name = "IC50"
result = "> 10000 nM"

[[record]]
molecule = "O=C(NC[C@@H](O)CN1Cc2ccccc2C1)c1cccc(NC2CCOCC2)c1"
tested_system = "PRMT5/MEP50 (Homo sapiens (Human), UniProt O14744)"
metric_name = "IC50"
result = "< 100 nM"

[[record]]
molecule = "O=C(CCc1nc2ccccc2[nH]1)NCC(O)CN1Cc2ccccc2C1 (centres unmarked)"
tested_system = "PRMT5/MEP50 (Homo sapiens (Human), UniProt O14744)"
metric_name = "IC50"
result = "101 to 1000 nM"

[[record]]
molecule = "O=C(NC[C@H](O)CN1Cc2ccccc2C1)c1cccc(NC2CCOCC2)c1"
tested_system = "PRMT5/MEP50 (Homo sapiens (Human), UniProt O14744)"
metric_name = "IC50"
result = "< 100 nM"

[[record]]
molecule = "CC(=O)N1CCC(Nc2cc(C(=O)NC[C@H](O)CN3CCCCc4ccccc43)ncn2)CC1"
tested_system = "PRMT5/MEP50 (Homo sapiens (Human), UniProt O14744)"
metric_name = "IC50"
result = "1000 to 10000 nM"

[[record]]
molecule = "C[C@@H](Oc1cccc2cccnc12)C(=O)NC[C@H](O)CN1Cc2ccccc2C1"
tested_system = "PRMT5/MEP50 (Homo sapiens (Human), UniProt O14744)"
metric_name = "IC50"
result = "< 100 nM"

[[record]]
molecule = "O=C(NC[C@H](O)CN1Cc2ccccc2C1)c1cc(NC2COC2)nc(C(F)(F)F)n1"
tested_system = "PRMT5/MEP50 (Homo sapiens (Human), UniProt O14744)"
metric_name = "IC50"
result = "101 to 1000 nM"

[[record]]
molecule = "CC(=O)N1CCC(Nc2cc(C(=O)NC[C@H](O)CN3CCc4ccccc43)ncn2)CC1"
tested_system = "PRMT5/MEP50 (Homo sapiens (Human), UniProt O14744)"
metric_name = "IC50"
result = "> 10000 nM"

[[record]]
molecule = "CC(=O)N1CC(Nc2cc(C(=O)NC[C@H](O)CN3CCCCc4ccccc43)ncn2)C1"
tested_system = "PRMT5/MEP50 (Homo sapiens (Human), UniProt O14744)"
metric_name = "IC50"
result = "> 10000 nM"

[[record]]
molecule = "O=C(NC[C@H](O)CN1CCCCc2ccccc21)c1cc(NC2COC2)ncn1"
tested_system = "PRMT5/MEP50 (Homo sapiens (Human), UniProt O14744)"
metric_name = "IC50"
result = "> 10000 nM"

[[record]]
molecule = "O=C(COc1cccc2cccnc12)NC[C@@H](O)CN1Cc2ccccc2C1"
tested_system = "PRMT5/MEP50 (Homo sapiens (Human), UniProt O14744)"
metric_name = "IC50"
result = "1000 to 10000 nM"

[[record]]
molecule = "O=C(NCC(O)CN1Cc2ccccc2C1)c1cccc(-c2ccccn2)c1 (centres unmarked)"
tested_system = "PRMT5/MEP50 (Homo sapiens (Human), UniProt O14744)"
metric_name = "IC50"
result = "101 to 1000 nM"

[[record]]
molecule = "CC(C)(C)OC(=O)Nc1cccc(C(=O)NCC(O)CN2Cc3ccccc3C2)c1 (centres unmarked)"
tested_system = "PRMT5/MEP50 (Homo sapiens (Human), UniProt O14744)"
metric_name = "IC50"
result = "101 to 1000 nM"

[[record]]
molecule = "O=C(NC[C@H](O)CN1Cc2ccccc2C1)c1cc(NC2COC2)nc(N2CCOCC2)n1"
tested_system = "PRMT5/MEP50 (Homo sapiens (Human), UniProt O14744)"
metric_name = "IC50"
result = "< 100 nM"

[[record]]
molecule = "O=C(COc1cccc2cccnc12)NCC(O)CN1Cc2ccccc2C1 (centres unmarked)"
tested_system = "PRMT5/MEP50 (Homo sapiens (Human), UniProt O14744)"
metric_name = "IC50"
result = "101 to 1000 nM"

[[record]]
molecule = "CC(=O)N1CCC(Nc2cc(C(=O)NC[C@H](O)CN3Cc4ccccc4C3)ccn2)CC1"
tested_system = "PRMT5/MEP50 (Homo sapiens (Human), UniProt O14744)"
metric_name = "IC50"
result = "< 100 nM"

[[record]]
molecule = "CC(=O)N1CCC(Nc2cc(C(=O)NC[C@H](O)CN3Cc4ccccc4C3)ncn2)CC1"
tested_system = "PRMT5/MEP50 (Homo sapiens (Human), UniProt O14744)"
metric_name = "IC50"
result = "< 100 nM"


* * *

# pEC50 per entry
test system: Z-138 cells; assay: Z-138 Proliferation Assay (Cell Titer Glo); assay type: cell-based; details: Homo sapiens, 120 h, 5 days incubation
pEC50: −log10 of the molar value.
Metric Name: pEC50

[[record]]
molecule = "O=C(NC[C@H](O)CN1Cc2ccccc2C1)c1ccnc(NC2CCOCC2)c1"
tested_system = "Z-138 cells"
metric_name = "pEC50"
result = "5.00 to 6.00"

[[record]]
molecule = "C[C@@H](Oc1cccc2cccnc12)C(=O)NC[C@H](O)CN1Cc2ccccc2C1"
tested_system = "Z-138 cells"
metric_name = "pEC50"
result = "5.00 to 6.00"

[[record]]
molecule = "CC(=O)N1CCC(Nc2cc(C(=O)NC[C@H](O)CN3Cc4ccccc4C3)ncn2)CC1"
tested_system = "Z-138 cells"
metric_name = "pEC50"
result = "6.00 to 7.00"

[[record]]
molecule = "Cn1ncc2ccc(OCC(=O)NC[C@H](O)CN3Cc4ccccc4C3)cc21"
tested_system = "Z-138 cells"
metric_name = "pEC50"
result = "< 4.70"

[[record]]
molecule = "CN(C)S(=O)(=O)c1ccccc1OCC(=O)NCC(O)CN1Cc2ccccc2C1 (stereo not drawn)"
tested_system = "Z-138 cells"
metric_name = "pEC50"
result = "5.00 to 6.00"

[[record]]
molecule = "CC(=O)N1CCC(Nc2cc(C(=O)NC[C@H](O)CN3CCCc4ccccc4C3)ncn2)CC1"
tested_system = "Z-138 cells"
metric_name = "pEC50"
result = "< 5.30"

[[record]]
molecule = "OC(COc1cccc(CNC2CCCC2)c1)CN1Cc2ccccc2C1 (stereo not drawn)"
tested_system = "Z-138 cells"
metric_name = "pEC50"
result = "4.30 to 5.00"

[[record]]
molecule = "O=C(NC[C@H](O)CN1Cc2ccccc2C1)c1cc(NC2COC2)nc(C(F)(F)F)n1"
tested_system = "Z-138 cells"
metric_name = "pEC50"
result = "4.30 to 5.00"

[[record]]
molecule = "CN(C)S(=O)(=O)c1ccccc1OCC(=O)NC[C@H](O)CN1Cc2ccccc2C1"
tested_system = "Z-138 cells"
metric_name = "pEC50"
result = "6.00 to 7.00"

[[record]]
molecule = "O=C(COc1ccccc1-c1cc[nH]n1)NCC(O)CN1Cc2ccccc2C1 (stereo not drawn)"
tested_system = "Z-138 cells"
metric_name = "pEC50"
result = "< 4.70"

[[record]]
molecule = "O=C(NC[C@H](O)CN1Cc2ccccc2C1)c1cc(NC2COC2)nc(N2CCOCC2)n1"
tested_system = "Z-138 cells"
metric_name = "pEC50"
result = "5.00 to 6.00"

[[record]]
molecule = "O=C(CCc1nc2ccccc2[nH]1)NCC(O)CN1Cc2ccccc2C1 (stereo not drawn)"
tested_system = "Z-138 cells"
metric_name = "pEC50"
result = "< 4.70"

[[record]]
molecule = "CC(=O)N1CCC(Nc2cc(C(=O)NC[C@H](O)CN3Cc4ccccc4C3)ccn2)CC1"
tested_system = "Z-138 cells"
metric_name = "pEC50"
result = "6.00 to 7.00"

[[record]]
molecule = "CC(=O)N1CC(Nc2cc(C(=O)NC[C@H](O)CN3CCCc4ccccc4C3)ncn2)C1"
tested_system = "Z-138 cells"
metric_name = "pEC50"
result = "< 5.30"

[[record]]
molecule = "O=C(NC[C@H](O)CN1Cc2ccccc2C1)c1cncc(NC2CCNC2)c1 (stereo partly drawn)"
tested_system = "Z-138 cells"
metric_name = "pEC50"
result = "< 4.70"


* * *

Listed here: items and their measured EC50.
System: symmetric di-methyl arginine in Z-138 cells
Test: Z-138 Methylation Assay (In Cell Western for symmetric di-methyl arginine and DNA content)
Type: cell-based
Settings: Homo sapiens, 96 hours incubation, read-out: ICW EC50
Method: [formula] Where top and bottom are the normally allowed to float, but may be fixed at 100 or 0 respectively in a 3-parameter fit. The Hill Coefficient normally allowed to float but may also be fixed at 1 in a 3-parameter fit. Y is the % inhibition and X is the compound concentration. Z-138 Methylation Assay Z-138 suspension cells were purchased from ATCC (American Type Culture Collection, Manassas, Va.). […] First, the ratio for each well was determined by: […]
Metric Name: EC50

[[record]]
compound = "CC(=O)N1CC(Nc2cc(C(=O)NC[C@H](O)CN3CCCc4ccccc4C3)ncn2)C1"
metric_name = "EC50"
result = "> 1 µM"

[[record]]
compound = "CN1CCOc2cccc(OCC(=O)NC[C@@H](O)CN3Cc4ccccc4C3)c21"
metric_name = "EC50"
result = "1 to 10 µM"

[[record]]
compound = "CN1CCOc2cccc(OCC(=O)NC[C@H](O)CN3Cc4ccccc4C3)c21"
metric_name = "EC50"
result = "0.101 to 1 µM"

[[record]]
compound = "O=C(NC[C@H](O)CN1Cc2ccccc2C1)c1cc(NC2COC2)nc(C(F)(F)F)n1"
metric_name = "EC50"
result = "0.101 to 1 µM"

[[record]]
compound = "CC(=O)N1CCC(Nc2cc(C(=O)NC[C@H](O)CN3Cc4ccccc4C3)ccn2)CC1"
metric_name = "EC50"
result = "< 0.1 µM"

[[record]]
compound = "CN(C)S(=O)(=O)c1ccccc1OCC(=O)NC[C@@H](O)CN1Cc2ccccc2C1"
metric_name = "EC50"
result = "0.101 to 1 µM"

[[record]]
compound = "O=C(NC[C@H](O)CN1CCCc2ccccc2C1)c1cc(NC2COC2)ncn1"
metric_name = "EC50"
result = "> 1 µM"

[[record]]
compound = "Cn1ncc2ccc(OCC(=O)NC[C@H](O)CN3Cc4ccccc4C3)cc21"
metric_name = "EC50"
result = "1 to 10 µM"

[[record]]
compound = "CN(C)S(=O)(=O)c1ccccc1OCC(=O)NC[C@H](O)CN1Cc2ccccc2C1"
metric_name = "EC50"
result = "< 0.1 µM"

[[record]]
compound = "O=C(COc1ccccc1-c1cc[nH]n1)NCC(O)CN1Cc2ccccc2C1 (stereo not shown)"
metric_name = "EC50"
result = "0.101 to 1 µM"

[[record]]
compound = "CS(=O)(=O)N1CCC(Nc2cncc(C(=O)NC[C@H](O)CN3Cc4ccccc4C3)c2)C1 (stereo partly shown)"
metric_name = "EC50"
result = "0.101 to 1 µM"

[[record]]
compound = "O=C(NC[C@H](O)CN1Cc2ccccc2C1)c1ccnc(NC2CCOCC2)c1"
metric_name = "EC50"
result = "0.101 to 1 µM"

[[record]]
compound = "CC(=O)N1CCC(Nc2cc(C(=O)NC[C@H](O)CN3CCc4ccccc43)ccn2)CC1"
metric_name = "EC50"
result = "> 1 µM"

